Catalogue of molecules with associated pEC50
biological target: Beta-3 adrenergic receptor (Homo sapiens); assay: In vitro agonistic activity against cloned human beta-3 adrenergic receptor […] increase in cAMP in CHO cells
Entry type: numeric. Quantity: pEC50, the -log10 of concentration in molar units.

1) CCCCCCc1csc(N2CCc3cc(S(=O)(=O)Nc4ccccc4)ccc32)n1    9.05

Attention now turns to another entry.
Recorded pEC50 of "CCCCCCc1ccnc(N2CCc3cc(S(=O)(=O)Nc4ccccc4)ccc32)n1" , please.
8.29

----------
target: Beta-1 adrenergic receptor (Homo sapiens, UniProt P08588)
Sequence (P08588 whole entry): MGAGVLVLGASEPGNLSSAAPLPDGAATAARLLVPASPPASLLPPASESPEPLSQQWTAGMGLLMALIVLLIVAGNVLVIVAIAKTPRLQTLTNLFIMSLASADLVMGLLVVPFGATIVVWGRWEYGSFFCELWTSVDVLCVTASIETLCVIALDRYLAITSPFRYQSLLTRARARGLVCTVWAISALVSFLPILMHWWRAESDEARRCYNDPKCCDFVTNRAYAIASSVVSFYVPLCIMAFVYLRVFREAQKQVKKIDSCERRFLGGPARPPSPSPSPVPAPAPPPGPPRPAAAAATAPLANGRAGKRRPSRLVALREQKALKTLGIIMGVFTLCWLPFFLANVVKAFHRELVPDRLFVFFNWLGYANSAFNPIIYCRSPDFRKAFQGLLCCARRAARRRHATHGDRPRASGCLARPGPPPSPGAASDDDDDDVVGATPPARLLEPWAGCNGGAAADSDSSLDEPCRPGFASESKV
pIC50: −log10 of the molar value.
Ranges used to classify pIC50: bin A: < 5; bin B: ≥ 5 and < 6; bin C: ≥ 6

Recorded results for 2 compounds are shown here.
1) CCCCCCNC(=O)N1CCc2cc(S(=O)(=O)Nc3ccccc3)ccc21    bin A
2) CCCCCCCCc1cccc(N2CCc3cc(S(=O)(=O)Nc4ccccc4)ccc32)n1    bin C

Which pIC50 band matches "O=S(=O)(Nc1ccccc1)c1ccc2c(c1)CCN2c1nc(CCCC2CCCC2)cs1" ?
bin B

Which pIC50 band matches "CCCCCCCCc1cnc(N2CCc3cc(S(=O)(=O)Nc4ccccc4)ccc32)o1" ?
bin B

Which pIC50 band matches "O=S(=O)(Nc1ccccc1)c1ccc2c(c1)CCN2c1noc(CCCC2CCCC2)n1" ?
bin C

Which pIC50 band matches "CCCCCCc1ccc(N2CCc3cc(S(=O)(=O)Nc4ccccc4)ccc32)nc1" ?
bin B

----------
target: Beta-3 adrenergic receptor (Homo sapiens, UniProt P13945); experiment: In vitro agonistic activity against cloned human beta-3 adrenergic receptor […] increase in cAMP in CHO cells
Sequence (P13945 whole entry): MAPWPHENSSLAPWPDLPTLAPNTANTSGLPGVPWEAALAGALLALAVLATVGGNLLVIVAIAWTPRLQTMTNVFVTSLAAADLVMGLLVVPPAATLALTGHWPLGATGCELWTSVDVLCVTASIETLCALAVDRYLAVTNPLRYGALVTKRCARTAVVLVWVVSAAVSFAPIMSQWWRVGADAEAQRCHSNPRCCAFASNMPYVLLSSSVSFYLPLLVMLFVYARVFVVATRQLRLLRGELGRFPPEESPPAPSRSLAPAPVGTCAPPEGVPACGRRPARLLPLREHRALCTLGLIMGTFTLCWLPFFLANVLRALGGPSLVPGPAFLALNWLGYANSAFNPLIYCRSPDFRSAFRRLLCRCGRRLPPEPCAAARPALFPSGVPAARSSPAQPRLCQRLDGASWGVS
Catalogue of compounds with associated pEC50
Entry type: numeric. Quantity: pEC50, the -log10 of concentration in molar units.

Record excerpt, results attached:
1. CCCCCCc1nc(N2CCc3cc(S(=O)(=O)Nc4ccccc4)ccc32)no1    7.89
2. CCCCCCCCC(=O)N1CCc2cc(S(=O)(=O)Nc3ccccc3)ccc21    8.15
3. CCCCCCc1cccc(N2CCc3cc(S(=O)(=O)Nc4ccccc4)ccc32)n1    8.92
4. CCCCCCCCc1ccnc(N2CCc3cc(S(=O)(=O)Nc4ccccc4)ccc32)n1    8.62
5. O=S(=O)(Nc1ccccc1)c1ccc2c(c1)CCN2c1nc(CCCC2CCCC2)cs1    8.49

Recorded pEC50 of "CCCCCCCCc1csc(N2CCc3cc(S(=O)(=O)Nc4ccccc4)ccc32)n1" , please.
9.03

Recorded pEC50 of "O=S(=O)(Nc1ccccc1)c1ccc2c(c1)CCN2c1cccc(CCCC2CCCC2)n1" , please.
8.77

Recorded pEC50 of "CCCCCCCCc1nc(N2CCc3cc(S(=O)(=O)Nc4ccccc4)ccc32)no1" , please.
7.51

Recorded pEC50 of "CCCCCCC(=O)N1CCc2cc(S(=O)(=O)Nc3ccccc3)ccc21" , please.
7.06

Recorded pEC50 of "Cc1csc(N2CCc3cc(S(=O)(=O)Nc4ccccc4)ccc32)n1" , please.
8.09

Recorded pEC50 of "CCCCCCCCN(C)C(=O)N1CCc2cc(S(=O)(=O)Nc3ccccc3)ccc21" , please.
7.74

Recorded pEC50 of "CCCCCCCCNC(=O)N1CCc2cc(S(=O)(=O)Nc3ccccc3)ccc21" , please.
9.14

Recorded pEC50 of "CCCCCCCCc1csc(Nc2ccc(S(=O)(=O)Nc3ccccc3)cc2)n1" , please.
9.10
